Could you please report measured pEC50 for the items listed next?
System: SARS-CoV-2-NLuc in A549-hACE2 cells
Experiment: microbe, parasite or virus in culture
Type: cell-based
Details: Severe acute respiratory syndrome coronavirus 2, 48 h; read-out: MPro EC50
Scale: negative log10 of molar concentration, which is what pEC50 denotes.

Problem: Which pEC50 is listed for COc1cc(-c2cc3[nH]c(=O)n([C@@H]4CCCNC(=O)C4)c(=O)c3s2)c(Cl)cc1F ?
Solution: 8.11

Problem: Repeat with COc1ccc(Cl)c(-c2cc3[nH]c(=O)n(C4CCCNC(=O)C4)c(=O)c3s2)c1 (stereo not shown)
Solution: 7.25

Problem: Another compound: COc1cc(Cl)c(-c2cc3[nH]c(=O)n([C@H]4CCNC(=O)C4)c(=O)c3s2)cc1OC
Solution: 5.94

Problem: Also COc1cc(-c2cc3c(s2)c(=O)n([C@@H]2CCCNC(=O)C2)c(=O)n3CC#N)c(Cl)cc1F ?
Solution: 8.52

Data origin, for the record: patent US20250276979A1
